Where do these numbers come from? They come from the supplement of paper PMC6757056.

B1: library; a variant is named by its letters at N, in order (parent)
chain: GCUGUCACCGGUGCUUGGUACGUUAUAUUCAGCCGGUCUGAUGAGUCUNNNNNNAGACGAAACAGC

Variants of: B1
Assay: normalized RNA/DNA level without ligand (relative to sTRSVctl = 100) (log10 (% of sTRSVctl)); HEK293T overexpressing SLC46A1; higher = less ribozyme self-cleavage, higher mRNA level
Details: without (6R,S)-folinic acid; ligand present: no
Examples of variants with documented normalized RNA/DNA level without ligand (log10) follow.
Answer with the value's number alone.

Example results:
Form: variant = GGGUGC ; normalized RNA/DNA level without ligand (log10) = 1.97

Form: variant = UCAGCU ; normalized RNA/DNA level without ligand (log10) = 2.05

Form: variant = CUUAUU ; normalized RNA/DNA level without ligand (log10) = 1.98

Form: variant = UUGCUG ; normalized RNA/DNA level without ligand (log10) = 1.98

Form: variant = UUAAUU ; normalized RNA/DNA level without ligand (log10) = 2.01

Form: variant = GGAAGG ; normalized RNA/DNA level without ligand (log10) = 1.95

---
Form: variant = GCGUAA ; normalized RNA/DNA level without ligand (log10) = 1.99

Form: variant = CAUGUG ; normalized RNA/DNA level without ligand (log10) = 2
